Where do these numbers come from? They come from ChEMBL document CHEMBL1961873.

inhibition by entry:
Target: Receptor-type tyrosine-protein kinase FLT3 (Homo sapiens) (UniProt P36888);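 further: values are mean percent inhibition of FLT3 kinase activity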
Sequence (P36888 whole entry): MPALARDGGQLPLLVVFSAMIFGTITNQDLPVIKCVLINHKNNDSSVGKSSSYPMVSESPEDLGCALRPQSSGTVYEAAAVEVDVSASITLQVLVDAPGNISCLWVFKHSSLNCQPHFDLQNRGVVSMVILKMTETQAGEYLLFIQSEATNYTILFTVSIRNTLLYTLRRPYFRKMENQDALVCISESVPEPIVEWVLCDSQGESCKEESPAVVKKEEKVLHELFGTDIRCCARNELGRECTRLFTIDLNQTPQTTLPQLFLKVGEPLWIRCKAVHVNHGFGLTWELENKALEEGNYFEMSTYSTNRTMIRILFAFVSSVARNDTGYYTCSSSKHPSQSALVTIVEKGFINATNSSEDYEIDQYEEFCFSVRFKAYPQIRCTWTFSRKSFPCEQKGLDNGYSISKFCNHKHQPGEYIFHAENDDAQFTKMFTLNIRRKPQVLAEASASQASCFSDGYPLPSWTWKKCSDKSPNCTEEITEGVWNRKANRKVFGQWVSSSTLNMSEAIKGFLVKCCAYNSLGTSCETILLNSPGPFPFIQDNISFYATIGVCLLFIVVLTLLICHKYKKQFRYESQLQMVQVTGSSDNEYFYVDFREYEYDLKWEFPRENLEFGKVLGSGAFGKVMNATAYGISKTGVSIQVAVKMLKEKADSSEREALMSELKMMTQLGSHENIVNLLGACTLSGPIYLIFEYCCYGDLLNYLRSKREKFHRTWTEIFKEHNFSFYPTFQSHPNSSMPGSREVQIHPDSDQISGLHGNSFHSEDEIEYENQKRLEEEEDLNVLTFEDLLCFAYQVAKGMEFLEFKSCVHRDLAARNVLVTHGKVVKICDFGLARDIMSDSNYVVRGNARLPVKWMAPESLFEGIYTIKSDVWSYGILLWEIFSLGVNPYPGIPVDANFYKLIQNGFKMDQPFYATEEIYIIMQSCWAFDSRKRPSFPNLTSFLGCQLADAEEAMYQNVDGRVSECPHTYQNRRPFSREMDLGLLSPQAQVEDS
Details: at 1 µM
Field: value (include unit after the number)

The reported value for O=C1NC(=O)C(c2cccc(Cl)c2)=C1Nc1ccc(Cl)c(C(=O)O)c1 in terms of inhibition is 0.25%

The reported value for Fc1ccc(-c2ncn(C3CCNCC3)c2-c2ccnc(Oc3ccc4c(c3)OCO4)n2)cc1 in terms of inhibition is 7.47%

---

Tested on: Platelet-derived growth factor receptor alpha (Homo sapiens), P16234 [T674I]
Sequence (P16234 whole entry T674I): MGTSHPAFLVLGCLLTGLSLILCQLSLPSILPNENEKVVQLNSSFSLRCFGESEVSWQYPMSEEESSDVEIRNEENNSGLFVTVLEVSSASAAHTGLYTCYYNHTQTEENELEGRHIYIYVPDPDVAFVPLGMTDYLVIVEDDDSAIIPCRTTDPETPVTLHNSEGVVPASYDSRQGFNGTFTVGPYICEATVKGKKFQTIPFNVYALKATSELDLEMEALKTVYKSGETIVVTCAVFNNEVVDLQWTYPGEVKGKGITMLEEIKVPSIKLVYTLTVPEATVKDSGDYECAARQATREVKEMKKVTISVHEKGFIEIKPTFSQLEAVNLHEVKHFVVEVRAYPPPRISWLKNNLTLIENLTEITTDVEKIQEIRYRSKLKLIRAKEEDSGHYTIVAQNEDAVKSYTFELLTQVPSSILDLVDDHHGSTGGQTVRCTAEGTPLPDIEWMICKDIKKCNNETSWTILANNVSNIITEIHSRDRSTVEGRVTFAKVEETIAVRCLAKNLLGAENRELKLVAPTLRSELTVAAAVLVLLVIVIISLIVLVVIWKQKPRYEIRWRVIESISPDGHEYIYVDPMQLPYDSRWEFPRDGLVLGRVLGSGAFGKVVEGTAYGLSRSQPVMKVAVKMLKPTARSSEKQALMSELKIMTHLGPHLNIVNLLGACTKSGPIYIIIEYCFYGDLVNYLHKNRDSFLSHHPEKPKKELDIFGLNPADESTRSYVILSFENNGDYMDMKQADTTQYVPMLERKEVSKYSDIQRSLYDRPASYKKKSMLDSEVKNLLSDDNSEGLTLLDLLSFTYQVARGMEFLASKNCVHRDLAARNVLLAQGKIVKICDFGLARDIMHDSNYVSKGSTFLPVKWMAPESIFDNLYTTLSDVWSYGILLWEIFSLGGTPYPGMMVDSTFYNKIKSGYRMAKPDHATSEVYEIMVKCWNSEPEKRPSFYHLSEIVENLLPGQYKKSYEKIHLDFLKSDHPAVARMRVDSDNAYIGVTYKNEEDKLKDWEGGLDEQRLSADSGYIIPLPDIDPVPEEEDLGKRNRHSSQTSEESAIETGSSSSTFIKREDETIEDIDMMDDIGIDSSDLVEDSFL
Conditions: at 0.1 µM
Rule: inhibition under 9% gives NO, otherwise YES.

Check out these entries, answers already filled in.
CNC(=O)c1cncc(/C=C/c2c(C)cccc2C)c1 : NO
NC(=O)Cc1ccccc1Oc1nccc(-c2c(-c3ccc(F)cc3)ncn2C2CCNCC2)n1 : NO
COc1cc(Nc2ncc(-c3ccccc3)o2)cc(OC)c1OC : YES
CS(=O)(=O)CCNCc1cc(-c2cc3c(Nc4ccc(OCc5cccc(F)c5)c(Cl)c4)ncnc3s2)cs1 : NO
Fc1ccc(-c2ncn(CCCN3CCOCC3)c2-c2ccncc2)cc1 : NO
O=C1Nc2ccccc2/C1=C/Nc1ccc(-n2cncn2)cc1 : YES
CS(=O)(=O)CCNCc1ccc(-c2ccc3ncnc(Nc4ccc(OCc5ccccc5)c(Br)c4)c3c2)o1 : NO
COC(=O)Nc1nc2ccc(Sc3ccc(NC(=O)Nc4cc(C(F)(F)F)ccc4F)cc3)cc2[nH]1 : NO
Fc1ccc(-c2ncn(C3CCNCC3)c2-c2ccnc(Oc3ccc4c(c3)OCO4)n2)cc1 : YES
c1ccc(-c2n[nH]cc2-c2ccnc(-c3ccc(OCCN4CCOCC4)cc3)c2)nc1 : NO

For this compound, is measured inhibition 9% or higher? Fc1ccc(-c2c(-c3ccncc3)nc3n2CCS3)cc1
NO

For this compound, is measured inhibition 9% or higher? C/C(Nc1ccc(S(N)(=O)=O)cc1)=C1/C(=O)Nc2ccccc21
YES

For this compound, is measured inhibition 9% or higher? Clc1ccc(CNc2nccc(-c3cnn4ncccc34)n2)cc1
NO

For this compound, is measured inhibition 9% or higher? CCC(=O)Nc1ccc(C)c(-c2ccc(C(=O)NCC3CC3)cc2)c1
NO

For this compound, is measured inhibition 9% or higher? NS(=O)(=O)c1ccc(Nc2cc(-c3ccc(O)c(F)c3)n[nH]2)cc1
YES

For this compound, is measured inhibition 9% or higher? Cc1ccc(NC(=O)c2ccoc2)cc1-c1ccc(C(=O)NCC2CC2)cc1
NO

---

Target: Mitogen-activated protein kinase 14 (Homo sapiens) (UniProt Q16539);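 further: values are mean percent inhibition of p38α kinase from the GSK PKIS published kinase inhibitor set screen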
Sequence (Q16539 whole entry): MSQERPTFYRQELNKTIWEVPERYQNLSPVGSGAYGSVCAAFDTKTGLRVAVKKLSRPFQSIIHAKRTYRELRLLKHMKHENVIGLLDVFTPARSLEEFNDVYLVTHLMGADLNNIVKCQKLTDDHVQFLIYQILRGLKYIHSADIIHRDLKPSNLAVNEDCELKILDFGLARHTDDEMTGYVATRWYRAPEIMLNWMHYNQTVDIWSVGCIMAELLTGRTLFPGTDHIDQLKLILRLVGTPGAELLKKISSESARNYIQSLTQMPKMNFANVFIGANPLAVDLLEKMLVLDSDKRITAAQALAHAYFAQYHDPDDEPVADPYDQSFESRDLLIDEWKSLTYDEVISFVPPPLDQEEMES
Details: at 0.1 µM
inhibition by entry:
Give a bare numeral; the unit % is implied.

Answered examples (2):
COc1cccc(-n2cnc3c(N/N=C/c4ccncc4)ncnc32)c1 : 2.63
CCS(=O)(=O)c1ccc(OC)c(Nc2ncc(-c3ccccc3Cl)o2)c1 : 7.68

The reported value for CCc1nccc2c1nc(-c1nonc1N)n2CC in terms of inhibition is 3.67

The reported value for COc1ccc(-c2ccc3c(NC(=O)C4CC4)n[nH]c3n2)cc1 in terms of inhibition is 1.32

The reported value for COc1cc(Nc2ncc3c(C)nc(-c4cccc(C(F)(F)F)c4)n3n2)cc(OC)c1OC in terms of inhibition is 1.25

The reported value for NS(=O)(=O)c1ccc(N/N=C2\C(=O)Nc3ccc(C(=O)NCCCn4ccnc4)cc32)cc1 in terms of inhibition is 1.52

The reported value for CN(C)CCCNc1nccc(-c2c(-c3ccc(F)cc3)nn3cc(C(F)(F)F)ccc23)n1 in terms of inhibition is 17.8

The reported value for NS(=O)(=O)c1ccc(Nc2cc(-c3ccc(O)c(F)c3)n[nH]2)cc1 in terms of inhibition is -1.03

---

Target: MAP/microtubule affinity-regulating kinase 3 (Homo sapiens);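 further: mean percent inhibition of MARK3 kinase activity, measured within the GSK PKIS screening panel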
Conditions: at 0.1 µM
parameter: inhibition (%)
Give a bare numeral; the unit % is implied.

O=C(Nc1ccc(Oc2ccc3[nH]c(NC(=O)c4ccccc4)nc3c2)cc1)Nc1cc(C(F)(F)F)ccc1F : 3.79

The reported value for c1ccc(Oc2ccc(Nc3ncc(-c4ccccc4)o3)cc2)cc1 in terms of inhibition is -0.01

The reported value for Cc1ccc(C(=O)NC2CCC2)cc1-c1ccc(C(=O)NCC2CC2)cc1 in terms of inhibition is 3.09

The reported value for COc1ccc(C2=C(N3CCc4ccccc43)C(=O)NC2=O)cc1 in terms of inhibition is 3.65

The reported value for O=C(Nc1n[nH]c2cc(-c3ccccc3)ccc12)C1CC1 in terms of inhibition is 5.89

The reported value for CN(C)CCCNc1nccc(-c2c(-c3ccc(F)cc3)nn3cc(C(F)(F)F)ccc23)n1 in terms of inhibition is 3.54

The reported value for Fc1ccc(-c2ncn(C3CCNCC3)c2-c2ccnc(Oc3ccc4c(c3)OCO4)n2)cc1 in terms of inhibition is 3.59

The reported value for COc1cc(N2CCN(C(C)C)CC2)ccc1Nc1nc(Nc2ccc(F)cc2C(=O)NC[C@@H](O)CO)c2cc[nH]c2n1 in terms of inhibition is 1.03

The reported value for NS(=O)(=O)c1ccc(N/N=C2\C(=O)Nc3ccc(C(=O)NCCCn4ccnc4)cc32)cc1 in terms of inhibition is 1.88

The reported value for O=C(Nc1n[nH]c2nc(-c3ccc(O)cc3)c(Br)cc12)C1CC1 in terms of inhibition is 3.96

The reported value for Cc1nnc(-c2ccc(C)c(-c3ccc(C(=O)NCc4ccc(Cl)cc4)cc3)c2)o1 in terms of inhibition is 0.14

---

inhibition by entry:
Target: cAMP-dependent protein kinase catalytic subunit alpha (Homo sapiens);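 further: mean percent inhibition of PKA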
Settings: at 1 µM
Give a bare numeral; the unit % is implied.

Answered examples (4):
C[C@@H](Oc1cc(-n2cnc3ccc(OCC4CCN(C)CC4)cc32)sc1C(N)=O)c1ccccc1Cl : -1.07
COc1cc(Nc2ncc3c(C)nc(-c4cccc(C(F)(F)F)c4)n3n2)cc(OC)c1OC : 2.72
O=C(Nc1ccc(Oc2ccc3[nH]c(NC(=O)c4ccccc4)nc3c2)cc1)Nc1cc(C(F)(F)F)ccc1F : 1.45
CCC(=O)Nc1ccc(C)c(-c2ccc(C(=O)NCC3CC3)cc2)c1 : 1.49

Considering O=C(Nc1n[nH]c2cc(-c3ccccc3)ccc12)C1CC1 , its inhibition with cAMP-dependent protein kinase catalytic subunit alpha (Homo sapiens) was recorded as 2.35

---

Target: Mitogen-activated protein kinase 1 (Homo sapiens) (UniProt P28482)
Sequence (P28482 whole entry): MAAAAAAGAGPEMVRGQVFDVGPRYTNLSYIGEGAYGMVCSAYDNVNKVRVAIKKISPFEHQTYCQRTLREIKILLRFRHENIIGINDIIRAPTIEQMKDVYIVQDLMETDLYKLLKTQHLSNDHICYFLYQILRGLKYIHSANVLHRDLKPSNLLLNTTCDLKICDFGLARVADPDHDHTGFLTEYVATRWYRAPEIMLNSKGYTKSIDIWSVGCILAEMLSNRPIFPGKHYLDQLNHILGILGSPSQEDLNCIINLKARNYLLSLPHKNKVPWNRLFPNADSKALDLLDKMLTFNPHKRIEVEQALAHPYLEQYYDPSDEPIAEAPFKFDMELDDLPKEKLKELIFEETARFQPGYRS
Conditions: at 0.1 µM
parameter: inhibition (%)
Give a bare numeral; the unit % is implied.

The reported value for Fc1ccc(-c2nc3n(c2-c2ccncc2)CCS3)cc1 in terms of inhibition is 3.06

The reported value for CN(C)CCCNc1nccc(-c2c(-c3ccc(F)cc3)nn3cc(C(F)(F)F)ccc23)n1 in terms of inhibition is 1.62

The reported value for O=C(Nc1n[nH]c2nc(-c3ccc(O)cc3)c(Br)cc12)C1CC1 in terms of inhibition is 5.75

The reported value for NC(=O)Cc1ccccc1Oc1nccc(-c2c(-c3ccc(F)cc3)ncn2C2CCNCC2)n1 in terms of inhibition is 0.51

---

Biological target: Serine/threonine-protein kinase D3 (Homo sapiens) (UniProt O94806);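 further: each value is the mean of inhibition readings, from a kinase profiling panel run on the GSK PKIS inhibitor collection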
Sequence (O94806 whole entry): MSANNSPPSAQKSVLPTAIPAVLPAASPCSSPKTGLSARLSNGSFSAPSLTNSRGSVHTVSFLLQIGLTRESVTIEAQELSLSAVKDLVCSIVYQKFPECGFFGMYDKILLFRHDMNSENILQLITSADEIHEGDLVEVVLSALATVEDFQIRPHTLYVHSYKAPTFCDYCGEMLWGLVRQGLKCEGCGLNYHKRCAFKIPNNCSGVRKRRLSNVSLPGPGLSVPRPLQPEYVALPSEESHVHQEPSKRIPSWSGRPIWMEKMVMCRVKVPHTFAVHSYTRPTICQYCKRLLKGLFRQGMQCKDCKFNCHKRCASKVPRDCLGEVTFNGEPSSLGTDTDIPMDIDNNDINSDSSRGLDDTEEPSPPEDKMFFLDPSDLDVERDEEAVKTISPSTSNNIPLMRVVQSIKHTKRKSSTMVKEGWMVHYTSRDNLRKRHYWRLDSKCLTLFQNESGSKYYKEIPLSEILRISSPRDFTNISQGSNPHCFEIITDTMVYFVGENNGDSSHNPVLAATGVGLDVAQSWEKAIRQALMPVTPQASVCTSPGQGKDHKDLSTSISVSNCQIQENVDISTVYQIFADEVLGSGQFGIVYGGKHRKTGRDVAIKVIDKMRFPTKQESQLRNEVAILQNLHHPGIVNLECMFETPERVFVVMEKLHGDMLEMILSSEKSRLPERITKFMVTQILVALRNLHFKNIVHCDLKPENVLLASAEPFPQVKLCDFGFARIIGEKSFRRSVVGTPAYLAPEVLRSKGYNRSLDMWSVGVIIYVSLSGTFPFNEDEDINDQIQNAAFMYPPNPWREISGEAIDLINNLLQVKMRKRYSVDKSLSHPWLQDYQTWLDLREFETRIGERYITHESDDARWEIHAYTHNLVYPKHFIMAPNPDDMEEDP
Settings: at 0.1 µM
inhibition by entry:
Give a bare numeral; the unit % is implied.

CCS(=O)(=O)c1ccc(OC)c(Nc2ncc(-c3ccccc3Cl)o2)c1 : 0.34

The reported value for CCc1cccc(CC)c1/C=C/c1cncc(C(=O)NC)c1 in terms of inhibition is 3.3

The reported value for O=C(NCC1CC1)c1ccc(-c2cccc(C(=O)NC3CC3)c2)cc1 in terms of inhibition is 2.87

The reported value for NS(=O)(=O)c1ccc(Nc2cc(-c3ccc(O)c(F)c3)n[nH]2)cc1 in terms of inhibition is -2.85

The reported value for CCc1nccc2c1nc(-c1nonc1N)n2CC in terms of inhibition is 1.43

The reported value for COC(=O)Nc1nc2ccc(Sc3ccc(NC(=O)Nc4cc(C(F)(F)F)ccc4F)cc3)cc2[nH]1 in terms of inhibition is 1.06

The reported value for O=C1Nc2ccccc2/C1=C/Nc1ccc(-n2cncn2)cc1 in terms of inhibition is 4.94

The reported value for Fc1ccc(-c2nc3n(c2-c2ccncc2)CCS3)cc1 in terms of inhibition is 1.34

The reported value for CCN(CC)Cc1ccc(Nc2nccc(-c3cnn4ncccc34)n2)cc1 in terms of inhibition is 30.2

The reported value for FC(F)(F)c1cccc(Nc2nccc(-c3cnn4nc(-c5ccccc5)ccc34)n2)c1 in terms of inhibition is 1.55

The reported value for C/C(Nc1ccc(S(N)(=O)=O)cc1)=C1/C(=O)Nc2ccccc21 in terms of inhibition is -0.08

---

Target: Serine/threonine-protein kinase Sgk1 (Homo sapiens) (UniProt O00141);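 further: mean percent inhibition of SGK1, from the GSK PKIS screening panel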
Sequence (whole entry): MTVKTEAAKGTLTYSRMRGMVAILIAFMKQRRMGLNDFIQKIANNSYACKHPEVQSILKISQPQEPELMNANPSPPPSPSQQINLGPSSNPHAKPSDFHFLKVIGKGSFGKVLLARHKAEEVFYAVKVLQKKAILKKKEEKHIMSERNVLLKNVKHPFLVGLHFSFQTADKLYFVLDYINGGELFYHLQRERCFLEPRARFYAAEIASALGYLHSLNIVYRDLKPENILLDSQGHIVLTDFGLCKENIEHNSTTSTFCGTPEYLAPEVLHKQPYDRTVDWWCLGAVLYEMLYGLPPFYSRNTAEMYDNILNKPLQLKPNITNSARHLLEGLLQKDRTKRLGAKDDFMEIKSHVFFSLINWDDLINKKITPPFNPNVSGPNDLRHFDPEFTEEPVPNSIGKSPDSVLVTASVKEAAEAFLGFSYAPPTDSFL
Conditions: at 1 µM
parameter: inhibition (%)
Give a bare numeral; the unit % is implied.

CCc1cccc(CC)c1/C=C/c1cncc(C(=O)NC)c1 : -0.86

The reported value for NC(=O)c1cc(-c2ccc(F)cc2)cc(-c2ccncc2)c1N in terms of inhibition is 4.51

The reported value for C[C@@H](Oc1cc(-n2cnc3ccc(OCC4CCN(C)CC4)cc32)sc1C(N)=O)c1ccccc1Cl in terms of inhibition is 4.04

The reported value for NC(=O)Cc1ccccc1Oc1nccc(-c2c(-c3ccc(F)cc3)ncn2C2CCNCC2)n1 in terms of inhibition is 0.48

The reported value for CCS(=O)(=O)c1ccc(OC)c(Nc2ncc(-c3cccc(-c4ccccc4F)c3)o2)c1 in terms of inhibition is 0.04

The reported value for Nc1nccc(-c2c(-c3ccc(F)cc3)ncn2C2CCC(O)CC2)n1 (configuration not stated) in terms of inhibition is -1.85

The reported value for NCc1ccc(-n2c(-c3nonc3N)nc3cnccc32)cc1 in terms of inhibition is 11.7

The reported value for COc1ccc2ncn(-c3cc(O[C@H](C)c4ccccc4Cl)c(C(N)=O)s3)c2c1 in terms of inhibition is 2.1

The reported value for COc1ccc(C2=C(N3CCc4ccccc43)C(=O)NC2=O)cc1 in terms of inhibition is 2.06

The reported value for NC(=O)c1cc(-c2ccncc2)cc(-c2ccccc2)c1N in terms of inhibition is 2.48

The reported value for CS(=O)(=O)CCNCc1cc(-c2cc3c(Nc4ccc(OCc5cccc(F)c5)c(Cl)c4)ncnc3s2)cs1 in terms of inhibition is 1.38

The reported value for COc1ccc(-c2ccc3c(NC(=O)C4CC4)n[nH]c3n2)cc1 in terms of inhibition is 6

The reported value for Fc1ccc(-c2ncn(C3CCNCC3)c2-c2ccnc(Oc3ccc(Oc4ccccc4)cc3)n2)cc1 in terms of inhibition is 2.46

The reported value for N#Cc1ccc(Oc2nccc(-c3c(-c4ccc(F)cc4)ncn3C3CCNCC3)n2)cc1 in terms of inhibition is 2.02
